Can you tell me clearance for the items I'm about to list?
assay notes: Plasma clearance evaluated in Rhesus monkeys at the dose of 10 mg/kg by iv bolus injection
Format: ADME, organism-based
Design: dose 10 mg/kg, route intravenous
run conditions: cercopithecidae
One number for each entry, in mL/min/kg.

As a guide, the following entries are already answered.
- compound structure string: "C[C@@H](O)[C@H]1C(=O)N2C(C(=O)[O-])=C(c3ccc4c(c3)-c3ccc(C[N+]56CC[N+](CC(N)=O)(CC5)CC6)cc3C4=O)[C@H](C)[C@H]12.[Cl-]"
  readout unit: "mL/min/kg"
  clearance: 2.95
- compound structure string: "C[C@@H](O)[C@H]1C(=O)N2C(C(=O)[O-])=C(c3ccc4c(c3)-c3ccc(C[N+]56CC[N+](CC(N)=O)(CC5)CC6)cc3C4=O)C[C@H]12.[Cl-]"
  readout unit: "mL/min/kg"
  clearance: 4.74

# ---- query compound ----
Value of clearance reported for the compound `C[C@@H](O)[C@H]1C(=O)N2C(C(=O)[O-])=C(c3ccc4c(c3)-c3ccc(C[n+]5ccn(C)c5)cc3C4=O)C[C@H]12` is 5.56
